target: CYP2C19 (Homo sapiens, UniProt P33261); test: in vitro
Sequence (P33261 whole entry): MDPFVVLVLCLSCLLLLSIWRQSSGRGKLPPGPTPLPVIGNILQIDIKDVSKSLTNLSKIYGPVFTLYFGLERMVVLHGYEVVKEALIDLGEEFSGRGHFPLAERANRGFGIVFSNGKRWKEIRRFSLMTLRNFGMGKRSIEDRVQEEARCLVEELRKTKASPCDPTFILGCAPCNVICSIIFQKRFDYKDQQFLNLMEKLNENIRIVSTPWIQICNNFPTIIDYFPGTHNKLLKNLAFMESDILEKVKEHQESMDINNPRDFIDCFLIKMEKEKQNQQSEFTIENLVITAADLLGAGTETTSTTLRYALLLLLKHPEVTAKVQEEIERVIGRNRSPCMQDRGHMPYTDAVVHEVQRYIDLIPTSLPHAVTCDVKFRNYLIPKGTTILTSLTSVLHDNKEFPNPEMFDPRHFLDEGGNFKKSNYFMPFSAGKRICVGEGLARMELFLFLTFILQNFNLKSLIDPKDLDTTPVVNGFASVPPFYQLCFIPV
RESULT TYPE: inhibition at 7.62 µM
Reply with the number and its unit after it.

Exam item: Need inhibition at 7.62 µM of CC(=O)N1CCN(c2ccc(OCC3COC(Cn4ccnc4)(c4ccc(Cl)cc4Cl)O3)cc2)CC1 (stereo not shown) [Ketoconazole] , thanks.
Marked response: 65%

----------
RESULT TYPE: melting point

Examples from the recorded data:
[
  {
    "MOLECULE": "COc1ccc2c(n1)C1(CO2)C(=O)N(Cc2ccc3c(c2)OCCO3)c2ccccc21 (centres unmarked)",
    "OBSERVED VALUE": "144 to 146 °C"
  },
  {
    "MOLECULE": "O=C1N(Cc2ccccn2)c2cccnc2C12COc1cc3c(cc12)OCCO3 (centres unmarked)",
    "OBSERVED VALUE": "146 to 147 °C"
  },
  {
    "MOLECULE": "O=C1Nc2cccnc2C12COc1cc3c(cc12)OCCO3 (centres unmarked)",
    "OBSERVED VALUE": "> 250 °C"
  },
  {
    "MOLECULE": "O=C1Nc2ncccc2C12COc1cc3c(cc12)OCCO3 (centres unmarked)",
    "OBSERVED VALUE": "> 250 °C"
  }
]

Now take the following molecule into account.
Exam item: Return reported melting point; argument: COc1ccc2c(n1)C1(CO2)C(=O)N(Cc2ncccc2C(F)(F)F)c2ccccc21 (centres unmarked)
Marked response: 195 to 198 °C
